These entries and their values trace back to the METLIN SMRT retention time set (Domingo-Almenara et al. 2019).

# measurement protocol: gradient 5% acetonitrile 3 min, to 50% in 2 min, to 85% in 15 min, held 3 min, 100 µL/min
# experimental setup: column: Zorbax Extend-C18 2.1 x 50 mm; eluents: water / acetonitrile, 0.1% formic acid
Respond with label 1 for RP-LC retention time values of 800 s and above, label 0 for values below.

{"molecule": "COc1ccc(N2CCN(c3cc(SCC(=O)Nc4ccc(F)cc4C)ncn3)CC2)cc1", "label class": "label 1"}
{"molecule": "Clc1cc(Cl)cc(-c2ccc(CNCc3ccccn3)o2)c1", "label class": "label 0"}
{"molecule": "COc1ccc(CNC(=O)CCC2CCN(c3cc(NC4CC4)ncn3)CC2)cc1", "label class": "label 0"}
{"molecule": "N#Cc1cccc(S(=O)(=O)N2CCc3nc(-c4ccccc4)ncc3C2)c1", "label class": "label 1"}
{"molecule": "COCCC(=O)Nc1ccc(-c2nc(Cn3nc(C)cc3C)c(C)o2)cc1", "label class": "label 0"}
{"molecule": "CCn1c(=O)c(SCC(=O)N2CCN(c3ccccn3)CC2)nc2ccccc21", "label class": "label 0"}
{"molecule": "COc1ccc(-c2cc(C(=O)NCC(c3ccco3)N(C)C)no2)cc1 (stereo not given)", "label class": "label 0"}
{"molecule": "CC1CCN(CCCNC(=O)C2CCc3sc(C(=O)N4CCCC4)cc3C2)CC1 (stereo not given)", "label class": "label 0"}
{"molecule": "O=C(NCc1ccccn1)C1CCc2sc(C(=O)N3CCCCCC3)cc2C1 (stereo not given)", "label class": "label 0"}
{"molecule": "Cc1cc2[nH]c(C(=O)Nc3cc(F)c(F)cc3F)c(CN3CCOCC3)c2s1", "label class": "label 0"}
{"molecule": "CCc1nc(-c2cccc(-c3noc(CNS(=O)(=O)c4ccccc4)n3)c2)cs1", "label class": "label 1"}
{"molecule": "COCc1nncn1C1CN(C(=O)Cc2cc(OC)ccc2OC)C1", "label class": "label 0"}
{"molecule": "COc1cccc(-n2c(=O)c3sccc3n(Cc3nc(-c4ccccc4OC)no3)c2=O)c1", "label class": "label 1"}
{"molecule": "O=C(c1ccccc1Br)N1CCc2nc(-c3ccc(Cl)cc3)ncc2C1", "label class": "label 1"}
{"molecule": "CCCN(CC1CCOC1)C(=O)c1ccc(F)c(Cl)c1 (stereo not given)", "label class": "label 1"}
{"molecule": "Cc1ccc(-n2ncc3c(N4CCN(C)CC4)ncnc32)cc1C", "label class": "label 0"}
{"molecule": "NC(=O)CSc1ccc(-c2ccccn2)nn1", "label class": "label 0"}
{"molecule": "O=C(CSc1nc2ccccc2o1)Nc1cc(C(F)(F)F)ccc1Cl", "label class": "label 1"}
